target: T1, hKLB-ECD-HIS protein (human, UniProt Q86Z14 53-996); assay: ELISA on hKLB-ECD-HIS protein, chimeric IgG (murine variable, hIgG1 constant regions), OD450
T1 construct: recombinant hKLB-ECD-HIS protein (R&D Systems); also called recombinant KLB-ECD protein; not shown: HIS tag

BINDER: 8E1 (antibody, V domains shown, murine hybridoma-derived anti-KLB antibody) VH: EVQLQQSGAELVKPGASVKLSCTAADFNIKDTYMHWVKQRPEQGLEWIGRIDPSNGNAKYDPKFQGKASITADSSSNTAYLHLSSLTSEDTAVYYCASRALGNGYALGYWGQGTSVTVSS VL: DIQMTQSSSYLSVSLGGSVTITCKASDHINNWLAWYQQKPGNAPRLLIYGTTNLETGVPSRFSGSGSGRDYILSITSLQSEDVASYYCQQYWNTPFTFGSGTKLEIK
binding result: binds
//
BINDER: 14E6 (antibody, V domains shown, murine hybridoma-derived anti-KLB antibody) VH: EVPLQQSGPELVKPGATVKISCKPSGDTFTEYTMNWVRQSHGKSLEWIGGINPNNGETSYNQKFKGKATLTVDKSSSTAFMDLRILTSEDSAVYFCARKTTNYWGQGTTLIVSS VL: DIQMTQSPSSLSASLGERVSLTCRASQEISGYLSWLQQKPDGTIKRLIYAASTLDSGVPRRFSGSRSGSDYSLTISSLESEDFADYYCLQYGSYPWTFGGGTKLELK
binding result: binds
//
BINDER: 8C5 (antibody, V domains shown, murine hybridoma-derived anti-KLB antibody; also called KLBmAb1) VH: QVQLKQSGPGLVQPSQSLSVACTVSDFSLTTYGVHWVRQSPGKGLEWLGVIWSGGSTDYNAAFISRLTISKDNSKSQVFFKMNSLQTTDTAIYYCARDYGSTYVDAIDYWGQGTSVTVSS VL: DIVLTQSPTSLAVSLGQRATISCRASESVESYGNRYMTWYQQKPGQPPKLLIYRAANLQSGIPARFSGSGSRTDFTLTIDPVEADDVATYYCQQSNEDPWTFGGGTKVEIK
binding result: binds
//
BINDER: 11F1 (antibody, V domains shown, murine hybridoma-derived anti-KLB antibody) VH: EVQLVESGGGLVKPGGSLKLSCAPSGFTFSSYGISWVRQTPEKRLEWVATVSSGGRYTYYPDSVKGRFTISRDNAENTLYLQMSSLRSEDTAMYYCTRGGDGYALDYWGQGTSVTVSS VL: DIQMTQTTSSLSASLGDRVTIICSASQVISNYLNWYQQKPDGTVKLLIYFTSSLRSGVPSRFSGSGSGTDYSLTISNLEPEDVATYFCQQYSKLPWTFGGGTKLELK
binding result: binds
